Reference for the values: ChEMBL document CHEMBL4813966

target: Dual specificity protein kinase CLK3 (Homo sapiens, UniProt P49761); assay: Inhibition of recombinant full length human CLK3 using ERMRPRKRQGSVR as substrate incubated for 40 mins in presence of [gamma-33ATP] by scintillation counting based radiometry assay
Sequence (P49761 whole entry): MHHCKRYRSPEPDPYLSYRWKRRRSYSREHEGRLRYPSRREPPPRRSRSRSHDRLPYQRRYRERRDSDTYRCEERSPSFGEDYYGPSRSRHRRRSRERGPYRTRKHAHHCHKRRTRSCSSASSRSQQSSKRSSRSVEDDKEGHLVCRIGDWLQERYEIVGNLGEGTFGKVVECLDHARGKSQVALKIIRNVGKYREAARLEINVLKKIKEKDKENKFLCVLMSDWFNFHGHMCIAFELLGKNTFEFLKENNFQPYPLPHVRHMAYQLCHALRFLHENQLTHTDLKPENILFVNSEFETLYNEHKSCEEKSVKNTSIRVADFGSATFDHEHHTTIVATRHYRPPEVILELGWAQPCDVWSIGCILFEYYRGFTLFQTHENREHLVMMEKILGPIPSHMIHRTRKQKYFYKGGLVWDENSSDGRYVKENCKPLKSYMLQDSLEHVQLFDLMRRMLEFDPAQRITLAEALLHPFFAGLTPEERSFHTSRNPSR
pIC50: −log10 of the molar value.
METRIC: pIC50

Task: For COc1ccc(CNC(=O)c2cnc3ccc(-c4ccc5ncccc5c4)cn23)cc1 , what is its reported pIC50?
Result: < 5.00

* * *

biological target: Dual specificity protein kinase CLK4 (Homo sapiens, UniProt Q9HAZ1); experiment: Inhibition of recombinant human CLK4 (128 to end residues) using YRRAAVPPSPSLSRHSSPHQS(p)EDEEE as substrate incubated for 40 mins in presence of [gamma-33ATP] by scintillation counting based radiometry assay
Sequence (Q9HAZ1 whole entry): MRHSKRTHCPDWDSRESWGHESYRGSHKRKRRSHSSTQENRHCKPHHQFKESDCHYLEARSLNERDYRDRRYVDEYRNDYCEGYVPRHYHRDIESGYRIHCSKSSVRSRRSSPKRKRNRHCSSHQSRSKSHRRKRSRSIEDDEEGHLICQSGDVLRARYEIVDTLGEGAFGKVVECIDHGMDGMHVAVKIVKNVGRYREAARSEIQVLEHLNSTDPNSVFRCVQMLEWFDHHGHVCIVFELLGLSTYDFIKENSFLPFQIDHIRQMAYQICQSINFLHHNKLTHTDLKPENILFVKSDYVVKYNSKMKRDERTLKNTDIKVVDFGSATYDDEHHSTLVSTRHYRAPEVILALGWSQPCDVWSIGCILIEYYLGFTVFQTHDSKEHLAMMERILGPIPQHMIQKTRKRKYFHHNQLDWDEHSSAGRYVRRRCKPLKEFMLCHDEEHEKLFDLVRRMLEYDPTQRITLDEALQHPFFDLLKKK
METRIC: IC50
Could you write the number and then its unit?

Task: Could you share what IC50 was measured for COc1ccc(CNC(=O)c2cnc3ccc(-c4ccc5ncccc5c4)cn23)cc1 , tested on Dual specificity protein kinase CLK4 (Homo sapiens, UniProt Q9HAZ1)?
Result: 17 nM
